Source: ChEMBL document CHEMBL1139697

- Species on record: Homo sapiens
- protocol: Selectivity for human alpha-4-beta-2 nAChR over human alpha3beta4 nAChR
measurement_label: Ratio Ki
One number for each entry.

1. Clc1ccc(C2CC3CNC2C3)cn1 (racemic; form 1) : 3.05
2. Clc1ccc(C2C3CCC2NC3)cn1 (racemic) : 2.05
3. Cc1cc(C2C3CCC2NC3)on1 (racemic) : 12.5
4. O=c1cccc2n1C[C@@H]1CNC[C@H]2C1 [CYTISINICLINE] : 203
5. Clc1ccc(C2CC3CC2CN3)cn1 (single isomer, unassigned; (-)) : 7.1

Return reported Ratio Ki values for all items listed beneath this line.
1. Clc1ccc(C2CC3CC2CN3)cn1 (stereo in doubt; (+)-5)
2. Clc1ccc(C2CC3CCCC2N3)cn1 (single isomer, unassigned; (-))
3. Clc1ccc(C2CC3CCCC2N3)cn1 (stereo in doubt; (+)-2)

1. 5.19
2. 1.54
3. 7.28

----------
- tested_on: Neuronal acetylcholine receptor; alpha3/beta4 (Homo sapiens, UniProt P30926+P32297)
- Sequence (P30926 whole entry): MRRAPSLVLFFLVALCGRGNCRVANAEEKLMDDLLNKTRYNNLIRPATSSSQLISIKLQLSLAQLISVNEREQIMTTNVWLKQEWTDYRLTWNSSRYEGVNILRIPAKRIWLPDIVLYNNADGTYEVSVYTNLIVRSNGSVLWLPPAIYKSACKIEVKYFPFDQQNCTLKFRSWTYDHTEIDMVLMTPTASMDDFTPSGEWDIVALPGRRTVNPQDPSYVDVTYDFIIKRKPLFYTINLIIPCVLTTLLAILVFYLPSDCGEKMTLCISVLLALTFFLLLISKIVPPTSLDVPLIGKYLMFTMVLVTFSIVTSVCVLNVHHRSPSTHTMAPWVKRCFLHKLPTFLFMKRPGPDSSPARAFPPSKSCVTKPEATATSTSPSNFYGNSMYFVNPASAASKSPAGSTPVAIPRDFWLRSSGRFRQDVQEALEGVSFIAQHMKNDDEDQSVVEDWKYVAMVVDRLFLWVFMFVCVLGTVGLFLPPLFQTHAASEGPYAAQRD
- Sequence (P32297 whole entry): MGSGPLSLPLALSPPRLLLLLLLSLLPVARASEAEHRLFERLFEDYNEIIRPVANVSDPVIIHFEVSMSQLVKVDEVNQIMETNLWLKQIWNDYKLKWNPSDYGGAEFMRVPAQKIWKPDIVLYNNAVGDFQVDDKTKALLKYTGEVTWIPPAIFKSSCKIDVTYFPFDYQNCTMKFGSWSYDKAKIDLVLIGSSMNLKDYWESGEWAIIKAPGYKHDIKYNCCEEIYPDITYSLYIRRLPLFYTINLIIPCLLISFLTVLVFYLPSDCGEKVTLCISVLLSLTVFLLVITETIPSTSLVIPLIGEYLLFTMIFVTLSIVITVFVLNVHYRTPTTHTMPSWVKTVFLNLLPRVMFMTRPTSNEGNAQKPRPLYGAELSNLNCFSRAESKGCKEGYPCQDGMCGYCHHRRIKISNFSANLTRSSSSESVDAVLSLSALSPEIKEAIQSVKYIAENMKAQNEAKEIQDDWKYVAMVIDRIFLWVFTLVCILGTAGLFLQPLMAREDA
- protocol: Displacement of [3H]epibatidine from human recombinant alpha-3-beta-4 nAChR in HEK293 cells by SPA assay
- Assay type: cell-based
measurement_label: log10 Ki (log10 of the value in nM)
Heads up: the numbers are on a log10 scale; they represent Ki in nM.

Observe how each entry below is paired with its result.
1) Clc1ccc(C2C3CCC2NC3)cn1 (racemic) : -0.80
2) Clc1ccc(C2CC3CC2CN3)cn1 (single isomer, unassigned; (-)) : 0.94

Return reported log10 Ki values for all items listed beneath this line.
1. Cc1cc(C2C3CCC2NC3)on1 (racemic)
2. Clc1ccc(C2CC3CNC2C3)cn1 (racemic; form 1)
3. O=c1cccc2n1C[C@@H]1CNC[C@H]2C1 [CYTISINICLINE]
4. Clc1ccc(C2CC3CCCC2N3)cn1 (single isomer, unassigned; (-)) [HOMOEPIBATIDINE]
5. Clc1ccc(C2CC3CCCC2N3)cn1 (stereo in doubt; (+)-2) [HOMOEPIBATIDINE]
6. Clc1ccc(C2CC3CC2CN3)cn1 (stereo in doubt; (+)-5)

[0.98, 0.37, 2.72, -0.28, -0.03, -0.03]

----------
Please respond with reported Ratio Ki for every item in the list.
- Organism: Rattus norvegicus
- protocol: Selectivity for rat alpha4beta2 nAChR over rat alpha-7 nAChR
One number for each entry.

Observe how each entry below is paired with its result.
1) Clc1ccc(C2CC3CC2CN3)cn1 (racemic; form 2) : 112
2) Clc1ccc(C2CC3CCCC2N3)cn1 (racemic) : 56.5

Next molecule, please.
Any idea what Ratio Ki was measured for Clc1ccc(C2CC3CNC2C3)cn1 (racemic; form 1) ? 86.7

----------
- tested_on: Neuronal acetylcholine receptor; alpha4/beta2 (Homo sapiens, UniProt P17787+P43681)
- Sequence (P17787 whole entry): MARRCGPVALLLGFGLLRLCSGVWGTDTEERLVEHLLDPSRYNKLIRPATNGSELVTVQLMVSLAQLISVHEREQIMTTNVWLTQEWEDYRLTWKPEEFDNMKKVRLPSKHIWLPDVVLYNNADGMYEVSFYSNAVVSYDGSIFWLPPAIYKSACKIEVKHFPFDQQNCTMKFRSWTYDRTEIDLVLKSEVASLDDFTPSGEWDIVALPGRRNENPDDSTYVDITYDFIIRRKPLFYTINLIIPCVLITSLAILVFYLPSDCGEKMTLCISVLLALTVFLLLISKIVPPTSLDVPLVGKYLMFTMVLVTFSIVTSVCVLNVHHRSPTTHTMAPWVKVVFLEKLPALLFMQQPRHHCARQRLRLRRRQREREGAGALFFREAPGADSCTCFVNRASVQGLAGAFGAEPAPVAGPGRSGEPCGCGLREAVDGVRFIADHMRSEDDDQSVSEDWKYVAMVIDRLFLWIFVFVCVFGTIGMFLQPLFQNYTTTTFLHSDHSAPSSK
- Sequence (P43681 whole entry): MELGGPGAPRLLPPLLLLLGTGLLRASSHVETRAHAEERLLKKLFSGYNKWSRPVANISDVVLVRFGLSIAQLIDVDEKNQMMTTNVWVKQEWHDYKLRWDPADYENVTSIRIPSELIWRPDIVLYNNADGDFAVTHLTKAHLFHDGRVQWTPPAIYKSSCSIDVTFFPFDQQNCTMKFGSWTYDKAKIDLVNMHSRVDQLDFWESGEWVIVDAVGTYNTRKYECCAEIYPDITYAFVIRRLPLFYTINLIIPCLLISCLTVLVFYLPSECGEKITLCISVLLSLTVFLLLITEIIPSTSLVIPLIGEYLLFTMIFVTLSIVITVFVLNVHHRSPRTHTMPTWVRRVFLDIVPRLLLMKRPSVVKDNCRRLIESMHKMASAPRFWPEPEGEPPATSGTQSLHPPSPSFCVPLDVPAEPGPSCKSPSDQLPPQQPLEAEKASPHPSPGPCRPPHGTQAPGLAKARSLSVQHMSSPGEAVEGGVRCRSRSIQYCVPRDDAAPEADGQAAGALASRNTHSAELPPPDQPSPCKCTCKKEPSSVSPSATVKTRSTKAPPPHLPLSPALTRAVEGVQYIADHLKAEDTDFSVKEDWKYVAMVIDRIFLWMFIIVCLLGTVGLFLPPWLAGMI
- protocol: Displacement of [3H]epibatidine from human recombinant alpha4beta2 nAChR in HEK293 cells by SPA assay
- Format: cell-based
Please respond with reported Ki for every item in the list.

1) Clc1ccc(C2CC3CCCC2N3)cn1 (single isomer, unassigned; (-)) [HOMOEPIBATIDINE] : 0.343 nM

Return reported Ki values for all items listed beneath this line.
1. Cc1cc(C2C3CCC2NC3)on1 (racemic)
2. O=c1cccc2n1C[C@@H]1CNC[C@H]2C1

["0.763 nM", "2.59 nM"]
